# Tested on: Fibroblast
# Experiment: Multiplex assay against human fibroblast
# Assay type: toxicity, cell-based
# Condition Summary: 24 h, 10 µM, compound concentration 10 uM, replicate 1
Below: a set of entries, each annotated with reported Population Pyknosed Nuclei (%).

Compound: CCOC(=O)c1c(C)[nH]c2ccc3c(c12)CN1CCc2cc(OC)ccc2C1O3 (stereo not given)
Test Target: Fibroblast
Units Symbol: %
Population Pyknosed Nuclei (%): 25

Compound: Cc1ccc2nc(NCCN)c3ncc(C)n3c2c1.O=C(O)C(F)(F)F.O=C(O)C(F)(F)F
Test Target: Fibroblast
Units Symbol: %
Population Pyknosed Nuclei (%): 13

Compound: O=C(Cc1ccc(-c2ccc(OCCN3CCOCC3)cc2)cn1)NCc1ccccc1 [TIRBANIBULIN]
Test Target: Fibroblast
Units Symbol: %
Population Pyknosed Nuclei (%): 20

Compound: COCC(=O)NC/C=C/c1ccc2ncnc(Nc3ccc(Oc4ccc(C)nc4)c(C)c3)c2c1 [CP-724714]
Test Target: Fibroblast
Units Symbol: %
Population Pyknosed Nuclei (%): 30

Compound: C=CCn1c(=O)c2cnc(Nc3ccc(N4CCN(C)CC4)cc3)nc2n1-c1cccc(C(C)(C)O)n1 [ADAVOSERTIB]
Test Target: Fibroblast
Units Symbol: %
Population Pyknosed Nuclei (%): 21
